Every entry's value here was drawn from patent US7501430B2.

target: mutant B-RAF (Homo sapiens, UniProt P15056, V600E); construct: purchased Upstate (Charlottesville, Va.); test: RAF biochemical assay (MEK-1 phosphorylation, anti-phospho MEK1/2 detection); details: read-out: Mutant B-RAF IC50
Sequence (P15056 whole entry V600E): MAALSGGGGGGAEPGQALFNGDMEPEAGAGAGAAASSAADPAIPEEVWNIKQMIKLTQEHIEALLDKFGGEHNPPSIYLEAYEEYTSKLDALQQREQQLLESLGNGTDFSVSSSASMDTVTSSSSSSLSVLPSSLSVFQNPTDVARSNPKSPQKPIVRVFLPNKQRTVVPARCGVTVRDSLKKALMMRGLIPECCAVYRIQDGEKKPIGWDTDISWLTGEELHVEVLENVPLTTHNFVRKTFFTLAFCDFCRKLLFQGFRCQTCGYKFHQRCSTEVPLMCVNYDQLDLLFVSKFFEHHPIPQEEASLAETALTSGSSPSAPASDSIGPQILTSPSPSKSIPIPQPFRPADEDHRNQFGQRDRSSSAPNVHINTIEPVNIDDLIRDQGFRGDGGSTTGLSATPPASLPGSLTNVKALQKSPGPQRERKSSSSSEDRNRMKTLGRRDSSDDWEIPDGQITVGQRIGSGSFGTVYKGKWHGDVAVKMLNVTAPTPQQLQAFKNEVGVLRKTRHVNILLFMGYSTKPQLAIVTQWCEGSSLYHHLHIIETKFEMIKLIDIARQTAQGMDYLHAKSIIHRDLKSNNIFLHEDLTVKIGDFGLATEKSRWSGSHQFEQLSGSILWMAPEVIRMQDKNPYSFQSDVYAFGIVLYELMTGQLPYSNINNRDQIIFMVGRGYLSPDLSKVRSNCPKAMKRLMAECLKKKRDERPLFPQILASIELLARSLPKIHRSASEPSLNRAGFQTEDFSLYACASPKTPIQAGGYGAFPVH
endpoint-name: IC50 (nM)
Answers are plain numbers, in nM.

[[record]]
compound = "Cc1cn2c(-c3ccnc(NC4CCN(S(=O)(=O)c5ccc(F)cc5)CC4)n3)c(-c3ccc(F)cc3)nc2s1 [Example 219]"
unit_symbol = "nM"
value_reported = 51


Please look at the items below and tell me IC50 for each one, in order.
1. Oc1cccc(-c2nc3occn3c2-c2ccnc(N[C@@H]3CCCNC3)n2)c1 [Example 333]
2. O=S(=O)(c1ccc(Cl)cc1)N1CCC(Nc2nccc(-c3c(-c4ccc(F)cc4)nc4sccn34)n2)CC1 [Example 255]

Output line:
906
696

Input line: Need IC50 of O=[N+]([O-])c1ccccc1-c1nc2sccn2c1-c1ccnc(N[C@@H]2CCCN(S(=O)(=O)c3ccc(Cl)cc3)C2)n1 [Example 131] , thanks.
Output line: 25
